B1: MAGEA6 (parent)
chain: KISGGPRISYPLLHEWALREGEE

Variants of: B1
experimentDescription: protein stability index of a GFP-peptide fusion (GPS, HEK-293T) (PSI 1-6); higher = more stable;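 also: lentivirally expressed fusions sorted by FACS into six bins by GFP to DsRed ratio, PSI derived from sequencing read proportions per bin multiplied by bin number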
studyConditions: c terminus: native
// reported protein stability index for each item listed
endpointName: protein stability index

itemSequence: KISGGPRISYPLLVEWALREGEE [H14V]
endpointName: protein stability index
observedMeasurement: 3.6
//
itemSequence: KISGGPRISYPLLHEWALREGET [E23T]
endpointName: protein stability index
observedMeasurement: 2.25
//
itemSequence: KISGGPRISYPLLHEWALREGAE [E22A]
endpointName: protein stability index
observedMeasurement: 2.4
//
itemSequence: KISGGPRISYPLLHEWATREGEE [L18T]
endpointName: protein stability index
observedMeasurement: 2.04
//
itemSequence: KISGGPRISYPLLHEWALREGER [E23R]
endpointName: protein stability index
observedMeasurement: 1.88
//
itemSequence: KISGGPRISYPLLHEWCLREGEE [A17C]
endpointName: protein stability index
observedMeasurement: 3.28
//
itemSequence: KISGGPRISYPLLHEWALREGYE [E22Y]
endpointName: protein stability index
observedMeasurement: 2.29
//
itemSequence: KISGAPRISYPLLHEWALREGEE [G5A]
endpointName: protein stability index
observedMeasurement: 2.31
//
itemSequence: KISGGPRISYLLLHEWALREGEE [P11L]
endpointName: protein stability index
observedMeasurement: 2.3
//
itemSequence: KISGGPRISYPLLHEWALRECEE [G21C]
endpointName: protein stability index
observedMeasurement: 3.26
//
itemSequence: KISVGPRISYPLLHEWALREGEE [G4V]
endpointName: protein stability index
observedMeasurement: 1.61
//
itemSequence: KISGGPRISYPLLHESALREGEE [W16S]
endpointName: protein stability index
observedMeasurement: 2.33
//
itemSequence: WISGGPRISYPLLHEWALREGEE [K1W]
endpointName: protein stability index
observedMeasurement: 2.14
//
itemSequence: KISGGPRISYPLLHEYALREGEE [W16Y]
endpointName: protein stability index
observedMeasurement: 4.84
//
itemSequence: KISGGPRISYPALHEWALREGEE [L12A]
endpointName: protein stability index
observedMeasurement: 4.05
//
itemSequence: KISGGPRISYPFLHEWALREGEE [L12F]
endpointName: protein stability index
observedMeasurement: 3.78
//
itemSequence: KISGGPRISYPLLHEWALREGEL [E23L]
endpointName: protein stability index
observedMeasurement: 2.27
//
itemSequence: KISGGPRISYPLLHEWALREDEE [G21D]
endpointName: protein stability index
observedMeasurement: 4.14
//
itemSequence: KISGGPRISYPLLHEWALREGEM [E23M]
endpointName: protein stability index
observedMeasurement: 2.17
//
itemSequence: KISGGPRISYMLLHEWALREGEE [P11M]
endpointName: protein stability index
observedMeasurement: 2.61
//
itemSequence: KIWGGPRISYPLLHEWALREGEE [S3W]
endpointName: protein stability index
observedMeasurement: 2.02
//
itemSequence: KISGGPRISYPLLHEWDLREGEE [A17D]
endpointName: protein stability index
observedMeasurement: 1.28
//
itemSequence: KISGGPPISYPLLHEWALREGEE [R7P]
endpointName: protein stability index
observedMeasurement: 2.65
//
itemSequence: KISGGPRISYPLQHEWALREGEE [L13Q]
endpointName: protein stability index
observedMeasurement: 2.27
//
itemSequence: KISGGPRISYPLLHEWALREGME [E22M]
endpointName: protein stability index
observedMeasurement: 2.19
//
itemSequence: KISGGPRISYPLLHEWALREGEF [E23F]
endpointName: protein stability index
observedMeasurement: 2.43
//
itemSequence: KISGGPRISYPLLHEWALHEGEE [R19H]
endpointName: protein stability index
observedMeasurement: 3.42
//
itemSequence: KISGYPRISYPLLHEWALREGEE [G5Y]
endpointName: protein stability index
observedMeasurement: 3.51
//
itemSequence: KISGGPGISYPLLHEWALREGEE [R7G]
endpointName: protein stability index
observedMeasurement: 2.84
//
itemSequence: DISGGPRISYPLLHEWALREGEE [K1D]
endpointName: protein stability index
observedMeasurement: 3.3
//
itemSequence: KISGGPRISYPLLHEWALREGPE [E22P]
endpointName: protein stability index
observedMeasurement: 1.85
//
itemSequence: KISGGPRISYPLLHEWALREGWE [E22W]
endpointName: protein stability index
observedMeasurement: 1.87
//
itemSequence: KISGGPRISYPLNHEWALREGEE [L13N]
endpointName: protein stability index
observedMeasurement: 2.95
//
itemSequence: KISGGPRICYPLLHEWALREGEE [S9C]
endpointName: protein stability index
observedMeasurement: 3.18
//
itemSequence: KISGKPRISYPLLHEWALREGEE [G5K]
endpointName: protein stability index
observedMeasurement: 2.48
//
itemSequence: KISGGPRISYPLLHEWALREGLE [E22L]
endpointName: protein stability index
observedMeasurement: 2.44
//
itemSequence: KISGGPRMSYPLLHEWALREGEE [I8M]
endpointName: protein stability index
observedMeasurement: 2
//
itemSequence: KISGGPRISYPLLHEWAKREGEE [L18K]
endpointName: protein stability index
observedMeasurement: 2.72
//
itemSequence: KISGGPRISYPLLHEWALREGHE [E22H]
endpointName: protein stability index
observedMeasurement: 2.49
//
itemSequence: FISGGPRISYPLLHEWALREGEE [K1F]
endpointName: protein stability index
observedMeasurement: 1.67
//
itemSequence: KISGGPRISYPLLHEWALREGEN [E23N]
endpointName: protein stability index
observedMeasurement: 2.73
//
itemSequence: KISGGPRISYPLLHEWALREGEH [E23H]
endpointName: protein stability index
observedMeasurement: 2.73
//
itemSequence: KISGGSRISYPLLHEWALREGEE [P6S]
endpointName: protein stability index
observedMeasurement: 2.73
//
itemSequence: KISGGPRISYELLHEWALREGEE [P11E]
endpointName: protein stability index
observedMeasurement: 3.27
//
itemSequence: KISGGPRISYPLLHETALREGEE [W16T]
endpointName: protein stability index
observedMeasurement: 1.89
//
itemSequence: KITGGPRISYPLLHEWALREGEE [S3T]
endpointName: protein stability index
observedMeasurement: 1.81
